tested on: KRAS-mutant PDC tumor spheroid with HUVEC/MSC, viability; test: Anticancer human tumor 327498-153-R-J2-PDC patient-derived uterine carcinosarcoma cell line growth inhibition [KRAS2]; details: second compound 1 µM; first compound 1 µM; stronger effect = lower value
Quantity measured: viability, T/C (%)

COC(=O)c1ccc2c(C(=Nc3ccc(N(C)C(=O)CN4CCN(C)CC4)cc3)c3ccccc3)c(O)[nH]c2c1 + COc1cc2nc(C)nc(NC(C)c3cc(N)cc(C(F)(F)F)c3)c2cc1OC1CCOC1    42.9
CC1(C)CCC(CN2CCN(c3ccc(C(=O)NS(=O)(=O)c4ccc(NCC5CCOCC5)c([N+](=O)[O-])c4)c(Oc4cnc5[nH]ccc5c4)c3)CC2)=C(c2ccc(Cl)cc2)C1 + CNCc1ccccc1-c1csc(C(C)Nc2nc(C)nc3cc(OC)c(OC)cc23)c1    72.3

* * *

system: KRAS-mutant PDC tumor spheroid with HUVEC/MSC, viability; test: Anticancer human tumor 327498-153-R-J2-PDC cell line growth inhibition [KRAS2]; conditions: curve of first compound; second compound 0.316 µM;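 note: spheroids exposed to agents for seven days before reading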
pIC50: −log10 of the molar value.
This listing pairs compounds with measured pIC50.
Quantity measured: pIC50

CCN1CCN(Cc2ccc(Nc3ncc(F)c(-c4cc(F)c5nc(C)n(C(C)C)c5c4)n3)nc2)CC1 + COc1cc2nc(C)nc(NC(C)c3cc(N)cc(C(F)(F)F)c3)c2cc1OC1CCOC1    8.16
Cn1ncnc1[C@H]1c2n[nH]c(=O)c3cc(F)cc(c23)N[C@@H]1c1ccc(F)cc1 + COc1cc2nc(C)nc(NC(C)c3cc(N)cc(C(F)(F)F)c3)c2cc1OC1CCOC1    8.04
Cn1ncnc1[C@H]1c2n[nH]c(=O)c3cc(F)cc(c23)N[C@@H]1c1ccc(F)cc1 + C=CC(=O)N1CCN(c2nc(=O)n(-c3c(C)ccnc3C(C)C)c3nc(-c4c(O)cccc4F)c(F)cc23)C(C)C1    8.46

* * *

test system: KRAS-mutant PDC tumor spheroid with HUVEC/MSC, viability; assay: Anticancer human tumor 327498-153-R-J2-PDC cell line growth inhibition [KRAS2]; details: second compound 1 µM; first compound 3.16 µM; stronger effect = lower value;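 note: spheroids exposed to agents for seven days before reading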;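 for viability, T/C: 100% = DMSO vehicle wells so lower means fewer viable cells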
Friendly reminder: viability, T/C below 20% is 1.0, at or above is 0.0.

CC(C)NCC(C(=O)N1CCN(c2ncnc3c2C(C)CC3O)CC1)c1ccc(Cl)cc1 (stereo unspecified) + CNCc1ccccc1-c1csc(C(C)Nc2nc(C)nc3cc(OC)c(OC)cc23)c1    1.0
O=C(c1cc(Cc2n[nH]c(=O)c3ccccc23)ccc1F)N1CCN(C(=O)C2CC2)CC1 + CNCc1ccccc1-c1csc(C(C)Nc2nc(C)nc3cc(OC)c(OC)cc23)c1    0.0
Cn1nccc1Nc1nccc(-c2cc3c(s2)C(C)(C)N(CCN2CCOCC2)C3=O)n1 + CC1OCC2(CCN(c3cnc(Sc4ccnc(N)c4Cl)c(N)n3)CC2)C1N    0.0
CC(C)NCC(C(=O)N1CCN(c2ncnc3c2C(C)CC3O)CC1)c1ccc(Cl)cc1 (stereo unspecified) + C=CC(=O)N1CCN(c2nc(OCC3CCCN3C)nc3c2CCN(c2cccc4cccc(C)c24)C3)CC1CC#N    1.0
CC1COCCN1c1cc(-c2ccnn2C)c2ccnc(-c3ccn[nH]3)c2n1 (stereo unspecified) + COc1cc2nc(C)nc(NC(C)c3cc(N)cc(C(F)(F)F)c3)c2cc1OC1CCOC1    1.0
CC1OCC2(CCN(c3cnc(Sc4ccnc(N)c4Cl)c(N)n3)CC2)C1N (stereo unspecified) + C=CC(=O)N1CCN(c2nc(=O)n(-c3c(C)ccnc3C(C)C)c3nc(-c4c(O)cccc4F)c(F)cc23)C(C)C1    1.0
